The measured values listed here are drawn from patent US20220289698A1.

Target: hHSL (Homo sapiens, UniProt Q05469)
Construct: made in house; host or cells: Expi cells (lysate)
Sequence (Q05469 1-1076): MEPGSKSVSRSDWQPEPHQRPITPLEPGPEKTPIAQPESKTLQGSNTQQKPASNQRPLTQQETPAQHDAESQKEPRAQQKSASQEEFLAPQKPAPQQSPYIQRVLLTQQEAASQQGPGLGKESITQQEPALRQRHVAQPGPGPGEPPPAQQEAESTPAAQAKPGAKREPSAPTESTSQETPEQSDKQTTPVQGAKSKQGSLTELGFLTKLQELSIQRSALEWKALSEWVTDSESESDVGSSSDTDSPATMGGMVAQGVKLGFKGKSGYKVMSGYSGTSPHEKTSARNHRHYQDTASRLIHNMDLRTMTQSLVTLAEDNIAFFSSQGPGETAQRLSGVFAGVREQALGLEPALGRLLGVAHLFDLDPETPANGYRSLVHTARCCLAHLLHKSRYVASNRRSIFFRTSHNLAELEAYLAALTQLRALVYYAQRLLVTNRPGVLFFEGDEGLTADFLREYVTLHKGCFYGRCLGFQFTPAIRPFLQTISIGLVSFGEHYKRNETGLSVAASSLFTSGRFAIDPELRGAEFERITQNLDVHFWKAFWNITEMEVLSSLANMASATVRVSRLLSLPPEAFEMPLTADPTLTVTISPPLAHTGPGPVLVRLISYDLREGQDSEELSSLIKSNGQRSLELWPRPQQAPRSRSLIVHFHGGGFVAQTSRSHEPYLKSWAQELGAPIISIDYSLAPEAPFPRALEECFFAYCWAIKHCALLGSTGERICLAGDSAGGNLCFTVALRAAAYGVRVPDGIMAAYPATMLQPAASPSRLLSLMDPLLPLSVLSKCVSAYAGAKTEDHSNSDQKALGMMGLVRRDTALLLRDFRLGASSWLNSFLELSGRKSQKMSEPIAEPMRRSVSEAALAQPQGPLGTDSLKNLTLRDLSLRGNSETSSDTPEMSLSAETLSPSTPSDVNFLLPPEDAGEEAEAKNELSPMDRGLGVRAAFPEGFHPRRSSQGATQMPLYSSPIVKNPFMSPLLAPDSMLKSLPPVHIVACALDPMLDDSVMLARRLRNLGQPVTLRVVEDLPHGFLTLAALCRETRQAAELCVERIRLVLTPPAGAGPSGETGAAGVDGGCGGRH
Test: hHSL off-target inhibition
Format: biochemical
Conditions: read-out: hHSL off-target inhibition [% inhibition at 100 μM]
# Lookup of reported inhibition at 100 µM keyed by entry
measured_metric: inhibition at 100 µM

{"molecule": "C#C[C@@H](C)OC(=O)c1csc(-c2ccc(OCC)cc2)n1 [Example 211]", "observed": "40%"}
{"molecule": "CC#CCOC(=O)c1csc(-c2ccc(OCC)cc2)n1 [Example 209]", "observed": "40%"}
{"molecule": "COc1cc(C(=O)OC(C)C)nc(-c2ccc(OC(C)C)cc2)c1 [Example 201]", "observed": "0%"}
{"molecule": "CCOc1ccc(-c2nc(C(=O)OCc3ccoc3)cs2)cc1 [Example 216]", "observed": "30%"}
{"molecule": "CCOc1ccc(-c2cccc(C(=O)OCc3cccs3)n2)cc1 [Example 189]", "observed": "0%"}
{"molecule": "CCOc1ccc(-c2nc(C(=O)OCc3cccs3)cs2)cc1 [Example 152]", "observed": "25%"}
{"molecule": "CCOc1ccc(-c2nc(C(=O)OCc3ccc(Br)s3)cs2)cc1 [Example 224]", "observed": "95%"}
{"molecule": "CCOc1ccc(-c2nc(C(=O)OCc3ccc(Cl)s3)cs2)cc1 [Example 223]", "observed": "40%"}
{"molecule": "CCOc1ccc(-c2cc(OC)cc(C(=O)OC(C)C)n2)cc1 [Example 35]", "observed": "0%"}
{"molecule": "CCOc1ccc(-c2cccc(C(=O)OCc3ccco3)n2)cc1 [Example 190]", "observed": "0%"}
{"molecule": "CCCCOC(=O)c1csc(-c2ccc(OCC)cc2)n1 [Example 212]", "observed": "0%"}
{"molecule": "C#C[C@H](C)OC(=O)c1csc(-c2ccc(OCC)cc2)n1 [Example 210]", "observed": "0%"}
{"molecule": "CCOc1ccc(-c2nc(C(=O)OCc3ccsc3)cs2)cc1 [Example 215]", "observed": "30%"}

====

target: human ATGL (Homo sapiens); construct: made in house; host or cells: Expi cells (lysate, not purified); assay: TG hydrolase activity, Expi cell lysates expressing human ATGL + CGI-58, radiolabelled triolein; type: biochemical; settings: Example 237; read-out: Inhibition of human ATGL − IC50
Sequence (Q96AD5 whole entry): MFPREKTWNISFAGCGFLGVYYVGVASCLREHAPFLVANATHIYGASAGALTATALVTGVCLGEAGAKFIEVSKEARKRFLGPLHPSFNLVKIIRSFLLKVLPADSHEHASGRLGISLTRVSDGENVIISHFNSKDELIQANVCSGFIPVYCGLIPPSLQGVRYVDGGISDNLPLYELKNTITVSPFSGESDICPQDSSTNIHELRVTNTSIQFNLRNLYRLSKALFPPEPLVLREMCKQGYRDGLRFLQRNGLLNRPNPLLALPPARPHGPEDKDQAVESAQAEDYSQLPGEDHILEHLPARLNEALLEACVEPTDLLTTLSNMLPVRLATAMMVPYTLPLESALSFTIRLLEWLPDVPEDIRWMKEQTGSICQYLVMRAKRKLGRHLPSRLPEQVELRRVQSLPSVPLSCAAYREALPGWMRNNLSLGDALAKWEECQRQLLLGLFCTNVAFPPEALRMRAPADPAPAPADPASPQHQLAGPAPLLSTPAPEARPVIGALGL
# Lookup of reported IC50 keyed by entry

{"structure_as_smiles": "CCOc1ccc(-c2nc(C(=O)OC(C)(C)C)c(C(=O)C(C)C)s2)cc1", "assay_target": "human ATGL (Homo sapiens)", "measurement_units": "µM", "IC50": 12}
{"structure_as_smiles": "CCOC(=O)c1csc(-c2ccc(OCC(F)(F)F)cc2)n1", "assay_target": "human ATGL (Homo sapiens)", "measurement_units": "µM", "IC50": 5}
{"structure_as_smiles": "CCCCCCOc1ccc(-c2cc(OC)cc(C(=O)OC(C)C)n2)cc1", "assay_target": "human ATGL (Homo sapiens)", "measurement_units": "µM", "IC50": 2.5}
{"structure_as_smiles": "CCOc1ccc(-c2nc(C(=O)OC(C)C)c(OC(C)C)s2)cc1", "assay_target": "human ATGL (Homo sapiens)", "measurement_units": "µM", "IC50": 25}
{"structure_as_smiles": "CC(C)COc1ccc(-c2cccc(C(=O)OC(C)C)n2)cc1", "assay_target": "human ATGL (Homo sapiens)", "measurement_units": "µM", "IC50": 10}
{"structure_as_smiles": "CC(C)OC(=O)c1cccc(-c2ccc(OC(F)(F)F)cc2)n1", "assay_target": "human ATGL (Homo sapiens)", "measurement_units": "µM", "IC50": 10}
{"structure_as_smiles": "CCOc1ccc(-c2nc(C(=O)OC)cs2)cc1", "assay_target": "human ATGL (Homo sapiens)", "measurement_units": "µM", "IC50": 8}
{"structure_as_smiles": "CCOC(=O)c1csc(-c2ccc(OCC(C)C)cc2)n1", "assay_target": "human ATGL (Homo sapiens)", "measurement_units": "µM", "IC50": 12}
{"structure_as_smiles": "CCOc1ccc(-c2nc(C(=O)OCc3ccccc3)cs2)cc1", "assay_target": "human ATGL (Homo sapiens)", "measurement_units": "µM", "IC50": 15}
{"structure_as_smiles": "CC(C)OC(=O)c1cccc(/C=C/c2ccccc2)n1", "assay_target": "human ATGL (Homo sapiens)", "measurement_units": "µM", "IC50": 10}

====

target: murine ATGL (Mus musculus); construct: made in house; host or cells: Expi cells (lysate); experiment: TG hydrolase activity, Expi lysates expressing mouse ATGL + CGI-58, radiolabelled triolein; assay type: biochemical; details: 50 μM; Example 238; read-out: % Inhibition of murine ATGL at 50 μM
Sequence (Q8BJ56 whole entry): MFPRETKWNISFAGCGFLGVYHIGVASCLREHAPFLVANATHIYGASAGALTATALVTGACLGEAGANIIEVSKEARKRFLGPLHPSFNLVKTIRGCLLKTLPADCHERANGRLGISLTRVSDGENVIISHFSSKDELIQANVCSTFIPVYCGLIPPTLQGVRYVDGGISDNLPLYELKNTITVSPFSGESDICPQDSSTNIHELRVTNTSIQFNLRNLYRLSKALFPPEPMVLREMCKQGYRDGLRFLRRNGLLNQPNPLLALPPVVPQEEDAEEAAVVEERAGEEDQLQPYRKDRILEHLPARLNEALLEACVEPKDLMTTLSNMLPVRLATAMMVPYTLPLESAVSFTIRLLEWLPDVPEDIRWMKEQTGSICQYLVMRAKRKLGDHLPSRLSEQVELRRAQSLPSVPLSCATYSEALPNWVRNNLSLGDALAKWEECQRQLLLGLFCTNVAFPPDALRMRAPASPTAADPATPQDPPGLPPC
# Lookup of reported inhibition at 50 µM keyed by entry

{"molecule": "CCCCOC(=O)c1csc(-c2ccc(OCC)cc2)n1", "measurement_units": "%", "inhibition at 50 µM": 56}
{"molecule": "CCOc1ccc(-c2nc(C(=O)OC(C)c3nccs3)cs2)cc1 (centres unmarked)", "measurement_units": "%", "inhibition at 50 µM": 68}
{"molecule": "CCOc1ccc(-c2nc(C(=O)OCc3cncs3)cs2)cc1", "measurement_units": "%", "inhibition at 50 µM": 77}
{"molecule": "CCOc1ccc(-c2nc(C(=O)OCc3ccc(Cl)s3)cs2)cc1", "measurement_units": "%", "inhibition at 50 µM": 71}
{"molecule": "C#C[C@@H](C)OC(=O)c1csc(-c2ccc(OCC)cc2)n1", "measurement_units": "%", "inhibition at 50 µM": 82}
{"molecule": "CCOc1ccc(-c2cccc(C(=O)OCc3ccco3)n2)cc1", "measurement_units": "%", "inhibition at 50 µM": 80}
{"molecule": "CCOc1ccc(-c2nc(C(=O)OCc3ccsc3)cs2)cc1", "measurement_units": "%", "inhibition at 50 µM": 81}
{"molecule": "C#CCC(C)OC(=O)c1csc(-c2ccc(OCC)cc2)n1 (centres unmarked)", "measurement_units": "%", "inhibition at 50 µM": 59}
{"molecule": "CCOc1ccc(-c2cccc(C(=O)OCc3ccoc3)n2)cc1", "measurement_units": "%", "inhibition at 50 µM": 82}
{"molecule": "CC#CCOC(=O)c1csc(-c2ccc(OCC)cc2)n1", "measurement_units": "%", "inhibition at 50 µM": 76}
{"molecule": "C#C[C@H](C)OC(=O)c1csc(-c2ccc(OCC)cc2)n1", "measurement_units": "%", "inhibition at 50 µM": 60}
{"molecule": "CCOc1ccc(-c2nc(C(=O)OCc3ccoc3)cs2)cc1", "measurement_units": "%", "inhibition at 50 µM": 81}
{"molecule": "COc1cc(C(=O)OC(C)C)nc(-c2ccc(OC(C)C)cc2)c1", "measurement_units": "%", "inhibition at 50 µM": 45}
{"molecule": "CCOc1ccc(-c2nc(C(=O)OCc3ccc(Br)s3)cs2)cc1", "measurement_units": "%", "inhibition at 50 µM": 68}
{"molecule": "CCOc1ccc(-c2cccc(C(=O)OCc3ccsc3)n2)cc1", "measurement_units": "%", "inhibition at 50 µM": 75}
{"molecule": "CCOC(=O)c1nc(-c2ccc(OCC)cc2)sc1C(C)C", "measurement_units": "%", "inhibition at 50 µM": 44}
{"molecule": "CCOc1ccc(-c2cccc(C(=O)OCc3cccs3)n2)cc1", "measurement_units": "%", "inhibition at 50 µM": 87}
